pIC50: −log10 of the molar value.
Here we gather pIC50 data for Protein deacetylase HDAC6 (Homo sapiens, UniProt Q9UBN7) reported by several publications.

Incoming: Identify measured pIC50 obtained with Protein deacetylase HDAC6 (Homo sapiens, UniProt Q9UBN7) for COc1ccc(C(=O)N2CCCc3cc(C(=O)NO)ccc3C2)cc1 .
Outgoing: 6.30 to 7.00

Incoming: Identify measured pIC50 obtained with Protein deacetylase HDAC6 (Homo sapiens, UniProt Q9UBN7) for O=C(NO)c1cnc(NC2(c3ccccc3)CCN(C(=O)Nc3ccccc3)CC2)nc1 .
Outgoing: 8.72

Incoming: Identify measured pIC50 obtained with Protein deacetylase HDAC6 (Homo sapiens, UniProt Q9UBN7) for O=C(NO)c1cnc2ccc(Oc3ccccc3)cc2c1 .
Outgoing: 6.30 to 7.00

Incoming: Identify measured pIC50 obtained with Protein deacetylase HDAC6 (Homo sapiens, UniProt Q9UBN7) for COc1ccc(CN2CCc3cc(C(=O)NO)sc3C2)cc1 .
Outgoing: < 6.00

Incoming: Identify measured pIC50 obtained with Protein deacetylase HDAC6 (Homo sapiens, UniProt Q9UBN7) for O=C(/C=C/c1cc(NCc2cccnc2)ccc1Oc1ccc(F)cc1)NO .
Outgoing: 5.00 to 6.00

###

Here we gather pIC50 data for Protein deacetylase HDAC6 (Homo sapiens, UniProt Q9UBN7) reported by several publications.
pIC50: −log10 of the molar value.

Incoming: Identify measured pIC50 obtained with Protein deacetylase HDAC6 (Homo sapiens, UniProt Q9UBN7) for O=C(NO)C1=CCN(S(=O)(=O)c2ccc(-c3cnn(C4CCNCC4)c3)cc2)CC1 .
Outgoing: > 7.00

Incoming: Identify measured pIC50 obtained with Protein deacetylase HDAC6 (Homo sapiens, UniProt Q9UBN7) for Cc1ccc(CNC(=O)N2CCc3cc(C(=O)NO)ccc3C2)cc1 .
Outgoing: > 7.30

Incoming: Identify measured pIC50 obtained with Protein deacetylase HDAC6 (Homo sapiens, UniProt Q9UBN7) for Cc1nc(C(=O)N2Cc3cc(C(=O)NO)sc3C(C)(C)C2)cs1 .
Outgoing: < 6.00

Incoming: Identify measured pIC50 obtained with Protein deacetylase HDAC6 (Homo sapiens, UniProt Q9UBN7) for CC[C@H](Nc1ncnc2[nH]cnc12)c1nc2cccc(NCc3ccc(C(=O)N(C)O)cc3)c2c(=O)n1-c1ccccc1 .
Outgoing: < 7.00

Incoming: Identify measured pIC50 obtained with Protein deacetylase HDAC6 (Homo sapiens, UniProt Q9UBN7) for O=C(NO)c1ccc2c(c1)CCN(Cc1ccccc1)C2 .
Outgoing: 7.00 to 7.30

Incoming: Identify measured pIC50 obtained with Protein deacetylase HDAC6 (Homo sapiens, UniProt Q9UBN7) for O=C(NO)c1ccc(CNC(=O)c2ccc(C3(c4ccc(F)cc4)CCCO3)cc2)cc1 (single isomer, unassigned) .
Outgoing: ≥ 8.00

Incoming: Identify measured pIC50 obtained with Protein deacetylase HDAC6 (Homo sapiens, UniProt Q9UBN7) for C[C@H](NC(=O)c1ccc(-c2ccccc2)cc1)c1ncc(C(=O)NO)s1 .
Outgoing: > 7.00

Incoming: Identify measured pIC50 obtained with Protein deacetylase HDAC6 (Homo sapiens, UniProt Q9UBN7) for COc1c(C(=O)N2CCc3cc(C(=O)NO)sc3C2)csc1Cl .
Outgoing: > 7.30

Incoming: Identify measured pIC50 obtained with Protein deacetylase HDAC6 (Homo sapiens, UniProt Q9UBN7) for Cn1cc(Cc2ccc(F)cc2)c2cc(C(=O)NO)ccc21 .
Outgoing: 6.44

###

Here we gather IC50 data for Protein deacetylase HDAC6 (Homo sapiens) reported by several publications.

Incoming: Please give measured IC50 of the following entry: O=C(NO)c1cc2c(s1)CN(C(=O)c1ccc(F)cc1)CC2
Outgoing: 50 to 100 nM

Incoming: Please give measured IC50 of the following entry: COc1cc2c(Oc3ccc(NC(=O)C4(C(=O)Nc5ccc(F)cc5)CC4)cc3F)ccnc2cc1OCCCCCCCSC(C)=O
Outgoing: 67.8 nM

Incoming: Please give measured IC50 of the following entry: O=C(/C=C/c1ccc(CNCC23CC4CC(CC(C4)C2)C3)cc1)NO
Outgoing: 1.7 nM

Incoming: Please give measured IC50 of the following entry: Cc1cc(C(=O)N2CCc3cc(C(=O)NO)sc3C2)c(C)o1
Outgoing: 50 to 100 nM

Incoming: Please give measured IC50 of the following entry: O=C(NO)c1ccc2c(c1)CCN(C(=O)Cc1ccc(C(F)(F)F)cc1)C2
Outgoing: 50 to 100 nM

Incoming: Please give measured IC50 of the following entry: COc1ccc(C(=O)N[C@H](C)c2ncc(C(=O)NO)s2)cc1
Outgoing: 100 to 500 nM

Incoming: Please give measured IC50 of the following entry: O=C(NO)c1ccc2c(c1)CCN(S(=O)(=O)c1cccc(-c3ccc(F)cc3)c1)C2
Outgoing: 50 to 100 nM

###

pIC50: −log10 of the molar value.
Here we gather pIC50 data for Protein deacetylase HDAC6 (Homo sapiens) reported by several publications.

Incoming: Please give measured pIC50 of the following entry: Cc1ncsc1C(=O)N1CCc2cc(C(=O)NO)sc2C1
Outgoing: > 7.30

Incoming: Please give measured pIC50 of the following entry: O=C(NO)c1cnc2cc(-c3ccncc3)ccc2c1
Outgoing: 6.30 to 7.00

Incoming: Please give measured pIC50 of the following entry: COc1cc2c(Oc3ccc(NC(=O)C4(C(=O)Nc5ccc(F)cc5)CC4)cc3F)ccnc2cc1OC/C=C/CCCCS
Outgoing: 7.46

Incoming: Please give measured pIC50 of the following entry: C[C@H](NC(=O)C(C)(C)C)c1ncc(C(=O)NO)s1
Outgoing: < 6.30

Incoming: Please give measured pIC50 of the following entry: C[C@@H](NC(=O)C(C)(C)C)c1cc(C(=O)NO)on1
Outgoing: < 6.30

Incoming: Please give measured pIC50 of the following entry: C[C@@H](NS(=O)(=O)c1ccc(C(F)(F)F)cc1)c1ccc(C(=O)NO)s1
Outgoing: 6.30 to 7.00

Incoming: Please give measured pIC50 of the following entry: CC(NC(=O)c1ccc(OCc2ccccc2)cc1)c1ncc(C(=O)NO)s1 (stereo not drawn)
Outgoing: > 7.00

Incoming: Please give measured pIC50 of the following entry: Nc1ccc(F)c(F)c1C(=O)NCCCC[C@H](NC(=O)c1cncs1)c1ncc(-c2ccc3ccccc3c2)[nH]1
Outgoing: ≤ 4.35

Incoming: Please give measured pIC50 of the following entry: O=C(NO)c1cnc2cc(Oc3cccc(Cl)c3)ccc2c1
Outgoing: 6.30 to 7.00

Incoming: Please give measured pIC50 of the following entry: O=C(NO)c1cc2c(s1)CN(C(=O)c1cc3ccccc3s1)C2
Outgoing: > 7.30

Incoming: Please give measured pIC50 of the following entry: O=C(NO)c1ccc2c(c1)CCN(CCOc1ccccc1)C2
Outgoing: 6.30 to 7.00

Incoming: Please give measured pIC50 of the following entry: O=C(NO)c1ccc(Cn2ccc(C3(c4ccc(F)cc4)CCCO3)cc2=O)nc1 (stereo not drawn)
Outgoing: ≥ 8.00

###

Here we gather pIC50 data for Protein deacetylase HDAC6 (Homo sapiens) reported by several publications.
Reminder that pIC50 means the negative base-10 logarithm of the concentration expressed in mol/L.

Incoming: Identify measured pIC50 obtained with Protein deacetylase HDAC6 (Homo sapiens) for CC(=O)SCC(=O)NCCCCCOc1cc2nccc(Oc3ccc(NC(=O)NC4CC4)c(Cl)c3)c2cc1C(N)=O .
Outgoing: 8.05

Incoming: Identify measured pIC50 obtained with Protein deacetylase HDAC6 (Homo sapiens) for CCOC(=O)N1CCC(Nc2ncc(C(=O)NO)cn2)(c2ccccc2)CC1 .
Outgoing: 8.54

Incoming: Identify measured pIC50 obtained with Protein deacetylase HDAC6 (Homo sapiens) for O=C(NO)c1cnc(NC2(c3cc(F)ccc3F)CCOCC2)nc1 .
Outgoing: 8.62

Incoming: Identify measured pIC50 obtained with Protein deacetylase HDAC6 (Homo sapiens) for COc1ccc(NC(=O)N2CCC(Nc3ncc(C(=O)NO)cn3)(c3ccccc3)CC2)cc1 .
Outgoing: 8.82

Incoming: Identify measured pIC50 obtained with Protein deacetylase HDAC6 (Homo sapiens) for O=C(/C=C/c1ccc(CN(CCF)CC23CC4CC(CC(C4)C2)C3)cc1)NO .
Outgoing: 6.51

Incoming: Identify measured pIC50 obtained with Protein deacetylase HDAC6 (Homo sapiens) for CC(C)[C@@H](C(=O)N1CCC(Nc2ncc(C(=O)NO)cn2)(c2ccccc2)CC1)c1ccccc1 (stereo in doubt) .
Outgoing: 7.89

###

Here we gather pIC50 data for Protein deacetylase HDAC6 (Homo sapiens) reported by several publications.
pIC50: −log10 of the molar value.

Incoming: Identify measured pIC50 obtained with Protein deacetylase HDAC6 (Homo sapiens) for O=C(NO)c1ccc2c(c1)CCCN(C(=O)c1ccc(C(F)(F)F)cc1)C2 .
Outgoing: < 6.30

Incoming: Identify measured pIC50 obtained with Protein deacetylase HDAC6 (Homo sapiens) for O=C(NO)c1cnc2ccc(NS(=O)(=O)c3ccccc3)cc2c1 .
Outgoing: > 7.00

Incoming: Identify measured pIC50 obtained with Protein deacetylase HDAC6 (Homo sapiens) for O=C(NO)c1ccc2c(c1)CCN(C(=O)C1CCCC1)C2 .
Outgoing: > 7.30

Incoming: Identify measured pIC50 obtained with Protein deacetylase HDAC6 (Homo sapiens) for O=C(NO)c1cc2c(s1)CN(C(=O)c1cccc(O)n1)CC2 .
Outgoing: 7.00 to 7.30
